This collection of values is drawn from patent US6784201B2.

Target: human IBAT (Homo sapiens)
Construct: expressed in transfected cells; host or cells: Baby hamster kidney (BHK) cells, clone H14
Sequence (Q12908 whole entry): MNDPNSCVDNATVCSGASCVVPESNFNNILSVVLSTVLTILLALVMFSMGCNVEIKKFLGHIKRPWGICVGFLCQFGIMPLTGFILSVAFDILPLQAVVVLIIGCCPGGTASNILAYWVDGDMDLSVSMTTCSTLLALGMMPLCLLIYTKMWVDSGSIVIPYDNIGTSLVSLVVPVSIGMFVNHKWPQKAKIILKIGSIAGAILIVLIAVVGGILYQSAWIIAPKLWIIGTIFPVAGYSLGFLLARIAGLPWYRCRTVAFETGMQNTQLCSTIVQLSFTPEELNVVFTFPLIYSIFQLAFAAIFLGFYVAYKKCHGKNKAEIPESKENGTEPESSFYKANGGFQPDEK
Experiment: In vitro assay of IBAT-mediated uptake of [14C]-taurocholate (TC) in H14 cells
Type: cell-based
Details: read-out: Human TC IC50
pIC50: −log10 of the molar value.
quantity measured: pIC50

Worked cases, pIC50 given:
| compound | quantity measured | assay result |
| --- | --- | --- |
| CCCCC1(CCCC)CS(=O)(=O)c2ccc(OC)cc2C(c2ccc(N(C)C)cc2)C1O (stereo not shown) | pIC50 | 6.60 |
| CCCCC1(CCCC)CS(=O)(=O)c2ccc(N(C)C)cc2C(c2ccccc2N(C)C)C1O (stereo not shown) | pIC50 | 6.85 |
| CCCCC1(CCCC)CS(=O)(=O)c2ccc(N(C)C)cc2C(c2ccc(OCc3cccc(C[N+](CC)(CC)CC)c3)c(F)c2)C1O (stereo not shown) | pIC50 | 8.70 |
| CCCCC1(CCCC)CS(=O)(=O)c2ccc(N(C)C)cc2C(c2ccccc2)C1O (stereo not shown) [Example 294] | pIC50 | 7.89 |
| CCCCC1(CCCC)CS(=O)(=O)c2c(NC(C)C)cccc2C(c2ccc(F)cc2)C1O (stereo not shown) | pIC50 | 6.62 |

1: CCCC[C@]1(CC)CS(=O)(=O)c2cc(OCCOCCOCCI)ccc2[C@@H](c2ccccc2)[C@H]1O
2: CCCCC1(CCCC)CS(=O)(=O)c2ccc(N(C)C)cc2C(c2cccc(OCCOCCOCC[n+]3ccc4ccccc4c3)c2)C1O (stereo not shown)
3: CCCCC1(CCCC)CS(=O)(=O)c2cc(Br)c(N(C)C)cc2C(c2ccccc2)C1O (stereo not shown)
4: CCCCC1(CC)CS(=O)(=O)c2ccc(OC)cc2C(c2cccc(F)c2)C1O (stereo not shown)
5: CCCCC1(CCCC)CS(=O)(=O)c2ccc(N(C)C)cc2C(c2cccc(OCCOCCOCC[n+]3ccc4c(c3)CCCC4)c2)C1O (stereo not shown)
# ascending order, key=pIC50 List labels; respect the requested ordering.
1, 3, 4, 5, 2
